Parameter: pKd. Scope: all listed entries.
Target: TNFα (UniProt P01375 77-233)
Sequence (P01375 77-233 limits assumed): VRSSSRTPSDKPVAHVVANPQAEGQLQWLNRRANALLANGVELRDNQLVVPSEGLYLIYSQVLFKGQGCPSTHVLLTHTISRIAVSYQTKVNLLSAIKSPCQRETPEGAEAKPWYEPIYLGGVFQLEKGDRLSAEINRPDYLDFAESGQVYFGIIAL
Assay: SPR (Biacore), TNFα on CM5 chip, Fab injected; mean of two runs ± SD
pKd: −log10 of the molar value.
property.label: pKd

INSERT INTO measurements (binder, property_label, value_observed) VALUES
  ('Anti-TNFα H1.67L1.33 (Fab, V domains shown, Fab format) VH: EVQLVESGGGLVQPGGSLKLSCAASGFTFSNHWMNWVRQASGKGLEWVGEIRSKAISYATHYAASVKGRFTISRDDSKNTAYLQMNSLKTEDTAVYYCSRNYYGSTYDYWGQGTLVTVSS VL: EIVLTQSPDFQSVTPKEKVTITCRASQFIGSSLHWYQQKPDQSPKLLIKYASESFSGVPSRFSGSGSGTDFTLTINSLEAEDAATYYCQQSHSWPFTFGSGTKLEIK', 'pKd', 8.42),
  ('Anti-TNFα H1L1 (Fab, V domains shown, Fab format, purified by Ni-NTA chromatography; also called framework optimized anti-TNFα H1L1) VH: EVQLVESGGGLVQPGGSLKLSCAASGFIFSNHWMNWVRQASGKGLEWVGEIRSKSINSATHYAESVKGRFTISRDDSKSIVYLQMNSLKTEDTAVYYCSRNYYGSTYDYWGQGTLVTVSS VL: DILLTQSPDFQSVTPKEKVTITCRASQFVGSSIHWYQQKPDQSPKLLIKYASESMSGIPSRFSGSGSGTDFTLTINSLEAEDAATYYCQQSHSWPFTFGSGTKLEIK', 'pKd', 8.72);
